The reported measurements were obtained from patent US20240287177A1.

Each record here notes measured kon.
- target: recombinant human NKp30 extracellular domain, his-tagged (human) (UniProt O14931)
- Sequence (O14931 19-135): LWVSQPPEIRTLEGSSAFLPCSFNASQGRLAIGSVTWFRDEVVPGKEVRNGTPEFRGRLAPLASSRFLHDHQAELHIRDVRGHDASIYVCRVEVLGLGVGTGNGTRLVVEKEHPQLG
- procedure details: BLI, SEEDbody on anti-human Fc sensors, soluble NKp30, 1:1 fit
// units = M⁻¹ s⁻¹; emit number, no label

Any idea what kon was measured for VHH5 SEEDbody eff- (bispecific antibody, part only; not given: silenced SEED Fc and cetuximab Fab, V domains shown, not shown: another chain or arm of the molecule; a dimerising Fc or GST; small tags and cut ends) VHH: DVQLQESGGGLVQPGESLRLSCLVSGVTYHFYDITWFRQAPGLEREGVSCISYASGSTKFADSVKGRFTISRDNAKNAVYLQMNSLKPEDTAVYFCATQGSGSCSDFMSADSVLSWGQGTQVTVSS ?
643000

Given the entry VHH14 SEEDbody eff- (bispecific antibody, part only; not given: silenced SEED Fc and cetuximab Fab, V domains shown, not shown: another chain or arm of the molecule; a dimerising Fc or GST; small tags and cut ends) VHH: DVQLQESGGGLVQPGGSLRLSCEASGVTFNFYSMTWYRQAPGKERELVADITSEGRTEYAHSVKGRFIISRDDFGTMVYLQMNSLKPEDTAVYYCYTGGSWGQGTQVTVSS , report its measured kon.
464000

Bench note: what kon did VHH15 SEEDbody eff- (bispecific antibody, part only; not given: silenced SEED Fc and cetuximab Fab, V domains shown, not shown: another chain or arm of the molecule; a dimerising Fc or GST; small tags and cut ends) VHH: DVQLQESGGGLVQAGGSLRLSCAVSGSTFRLNVMGWYRQAPGKLRDLVAGITADGGVTNYADSVKGRFIISRDNAKNTVYLQMNSLKPEDTAIYYCNTAPANWGSWGQGTQVTVSS show?
440000

Which measured kon value corresponds to VHH10 SEEDbody eff- (bispecific antibody, part only; not given: silenced SEED Fc and cetuximab Fab, V domains shown, not shown: another chain or arm of the molecule; a dimerising Fc or GST; small tags and cut ends) VHH: DVQLQESGGGSVQAGGSLRLSCAASGRTFSSNFMGWFRQAPNKDREFVAAIHWSGGSRAYADSVKGRFTISRDNTKDTVYLLVNSLKLEDTAVYYCAAEISWQTTGWTNLGSWGQGTQVTVSS ?
346000
